experiment: yeast display, Sf9 membrane polyspecificity reagent, FACS + sequencing; frameworks hold sequencing errors
result type: polyreactivity (PSR sort gate)

Examples with their reported polyreactivity (PSR sort gate) follow.
QVQLQERAAWCRRAGSLRLSCAASGNISDYYFMGWYRQAPGKERELVAAIAPGSNTYYADSVKGRFTISRDNAKNTVYLQMNSLKPEDTAVCFCGANSTQYTWFDYWGQGTQVPVSS :: low polyreactivity
QVQLVESGGGLVQAGGRLRLSCAASGLNFYLYAMGWYTQAPGKERELVATITSAGRTNSADTVKGRFTISRDNAKNTVYLERNSLKPEYTAVYYCIRDVRFVGPSGFDYWGQGTEVTVSS :: high polyreactivity
QVQLVESGGGLVQAGGSLRLSCAASGSNITPNAMGWYRQAPGKERELVAAISSSSDRTYYADSVKGRFTISRDNAKNTVYLQMNSLKPEDTAVYYCAAYAQKRYYWGQGTQVTVSS :: high polyreactivity
QVQLVESGGGLVQAGGSLRLSCAASGSTFRFYAMGWYRQAPGKERELVAAITRSGGGTTYYADSVKGRFTISRDNAKNTVYLQMNSLKPEDTAVYYCAAYLSSLGRKYYYWGQGTQVTVSS :: high polyreactivity
QVQLVESGGGLVQAGGSLRLSCAASGRTFLLNAMGWYRQAPGKERELVAAITRSGVITYYADSVKGRFTISRDIAKNTVYFQMNSLKPEDTAVFYCAAQLRYSYLRPSYYYWGQGTQVTVSS :: high polyreactivity

API: the following record is the query input.
get_value(item= "QVQIVESGGGLVQAGGSLRLSCAASVRTFGRYVMGWYRQAPGKERELVAAISSGGRTYYADSVKGRFTISRDNAKNTVYLQMNSLKPEDNAVYYCAVYVAYLYSYYYWGQGTQVTVSS" , readout=polyreactivity (PSR sort gate)) returns low polyreactivity

* * *

test: yeast display, Sf9 membrane polyspecificity reagent, FACS + sequencing; frameworks hold sequencing errors
result type: polyreactivity (PSR sort gate)

Examples with their reported polyreactivity (PSR sort gate) follow.
QVQLVESGGGLVQAGRSLRLICAASGRTFTLNAMRWYRQAPGKERELVDAITWGAGSTYYADSVKGRFTISRDNAKNTVYLQMNSLKPEDTAVYYCAARFHGDYYRYRSPSMYYWGQGSQVTVSS :: high polyreactivity
QVHLQESGGGLVQAGGSLRLSCAASGYITLAQTIGWYRQAPGQEREFVASIALGSSTYYTDSVKGSFTISRDNAKTTVYLQMNSLKPEDTAVYYCAARVGSSYAHDYWGQGTQVTVSS :: low polyreactivity
QVQHVESGGGLVQAGVSLRLSCAASGSTFRRYAMGWYRQSRGKERELVATISSRGGSTNYADSVKGRFTISRDNAKNTVYLQMNSLNPEDTSFYYCARSTSLVTKDDYWGQGTQVTVSS :: high polyreactivity
QVQLVESGGGLVQAGGSLRLSCAASGSIFGSYAMGWYRQAPGKERELVAAISRSGGRTYYADSVKGRFTISRDNAKYTVYLQMNSLKPEDTAVYYCAADTYIGYDYWGQGTQVTVSS :: high polyreactivity
QVQLVESGGGLVQSGGSLRLSCAASGSTVTQYVMGWYRQAPGKERELVAAISDSGSTYYADSVKGRFTISRDKAKNTVYLQMNSLKPEDTAVYYCAAAAPYHGLLYEGDYGGQGTQVTVSS :: low polyreactivity
QVHLVESGGGLVQAGRSLRLSCAASGIIFQLYAMGWYRQPPGKERELVATISSVGSTNYADSVKGRFTISRDNAKNTVYLEMTSLNPEDTAVYYCNAARYGWGYFYGLNYWGQGTQVTVSS :: low polyreactivity
QVQLVESGGGLVQAGGSLRLSCAASGLIFGRYAMGWYRQAPGKERELVAGISGSGGITYYADSVKGRFTISRDTAKNTVYLQMHILKPEDTAVYYCATAAASHKYGYWGQGTQVTVSS :: low polyreactivity

get_value(item= "QVRLVESGGGLVQAGCSRRLSCAATGRFFAYNSMGWYRQAPGKEMEWVAAISSTGGSTYYADSVKGRFTISRDNAKNTVYLQMNSLKTEDTAVYYCAAAWCYRYSSYDYWGQGTQVTVSS" , readout=polyreactivity (PSR sort gate)) returns low polyreactivity

* * *

assay: yeast display, Sf9 membrane polyspecificity reagent, FACS + sequencing; frameworks hold sequencing errors
result type: polyreactivity (PSR sort gate)

Examples with their reported polyreactivity (PSR sort gate) follow.
QVLLVESGGGLVQAGGSLRLSCAASGSIFGAYAMGWYRQAPGKVRELVAAINYGGATTYYADSVKGRYTISRDLAKNTVYLQMNSLKPQDTAVYYCAADNDTDHSSATYGYDYWGQGTQVTVSS :: low polyreactivity
QVQLVESGGGLVQAGGSIRLSCAASGFIIKVYAMGWYRQAPGKERELVAAITWSGGSTYYADSVKGRFTISRDNAKNNVYLQMNSLKPEDTAVYYCNTDAYRYPEYDYWGQGTQVTVSS :: low polyreactivity
QVQLVESGGGLVQAGGSLRLSCAASGSTLGANAMGWYRQAPGKERELVAAISISDGDTYYADSVKGRFTISRDYAKNTVYLQMNSLKPEDTAVYYCAADYWFQYRWYDYWGQGTQVTVSS :: high polyreactivity
QVQLVESGGGLVQAGGSLRLSCAASGITFYRKAMGRYRQAPGKERELVAAISRRGGITRYADSVKGRFTISRDNAKNTVYLQMNSLKPEDTAVYYCATVRYRWYSFQAERYYWGQGTQVTVSS :: high polyreactivity

get_value(item= "QVQLVESGVGLVQAGGSLRLSCAHSGRIFFKNTMGWYRQAPGKERELVAAITSSGSSTYYADSVKGRFTISRDNAMNTVYLQMNSLKPEDTAVYYCNADYGFSFYWYDFWGHGTQVTVSS" , readout=polyreactivity (PSR sort gate)) returns low polyreactivity

get_value(item= "QVQLVESGGGLVQAGGSLRLTCAASGRIFRTYAMGWYRQAPGKERELVAAISGRGGNTYYADSVKGRFTISRDNAKNTVYLQMNSLKPEDTAVYYCAASKPSRDTQQRWVYAGYDYWGQGTQVTVSS" , readout=polyreactivity (PSR sort gate)) returns high polyreactivity

* * *

experiment: yeast display, Sf9 membrane polyspecificity reagent, FACS + sequencing; frameworks hold sequencing errors
result type: polyreactivity (PSR sort gate)

Examples with their reported polyreactivity (PSR sort gate) follow.
QVQLVESGGGLVQAGGSLRLSCAASGFTFRRNAMGWYRQAPGKERELVAAISRGGSSTYYADSVKGRFTISRDNAKNTVYLQMNSLKPEDTAVYYCGARIPNQQGYGYWGQVTQVTVSS :: high polyreactivity
QVQLVESGGGLVQAGGSLRLSCAASGFIFKHYAMGWYRPAPGKERELVAAITRSGGRTYYADSVKGRFTISRDYAKNTVYLQMNSLKPEDTAVYYCNVDGKKRHYRHYYLSAYDYWGQGTQVTVSS :: high polyreactivity
QVQLVESGGGLVQAGGSLRLSCAASGSTVRVYAMGWYRQAPGKERELVARISITGGTTRYADSVKGRFTISRDNAKNTVYLQMNSLKPEDTAVYYCNADYDWYYWYLYKYPFDYWRQGTQVTVSS :: low polyreactivity
QVQLVESGGGLVQAGGSLRLSCAASGITFWKYAMGWYRQAPGKERELVAAISGRGGSTYYADSVKGRFTISRDNAKNTVYLQMNSLKPEDTAVYSCDTRTYYRYPVFYWGQGTQVTVSS :: high polyreactivity
QVQHVESGGGLVQAGGSLRLSCAASGIIFRDYGMGWYRQAPGKEREFVATITYSGGGTYYADSVKGRFTISRDNAKNTVYLQMNSLKPEDTAVYYCAAYPFYYDLAYDYWGQGTQVTVSS :: low polyreactivity

get_value(item= "QVQLVESGGGLVQAGGSLRLSCAASGFIFRVYAMGWYRQAPGKERELVAAITRNGGSTYYADSVKGRFTISRDNAKNTVYLQMNSLKPEDTAVYYCATVYSFGQNRDYWGQGTQVTVSS" , readout=polyreactivity (PSR sort gate)) returns high polyreactivity

get_value(item= "QDKLVESGGALVQAGGSLRISCAASGNIFSYYAMGWNRQAPGKEMDLVAAISRRGTNTYYADSVKGRFTISRDKAKNTVYLQMNSLKPEDTAVYYCASYGPYQSSYHYDYWGQGTQVTVSS" , readout=polyreactivity (PSR sort gate)) returns high polyreactivity

* * *

experiment: yeast display, Sf9 membrane polyspecificity reagent, FACS + sequencing; frameworks hold sequencing errors
result type: polyreactivity (PSR sort gate)

Examples with their reported polyreactivity (PSR sort gate) follow.
QVQLVESGGGLVQAGGSLRLSCAASGSILDGNNMGWSRQAPGKERELVAAISWRGGSTYYADSVKGRFTISRDNAKNTVYLQMNSLKPEDTAVYYCNTYHPYWGSGFDYWGQGTQVTVSS :: low polyreactivity
QVQLVESGGGLVQAGGSLRLSCAASGSIFKYYAMGWYRQAPGKERELVAAITWSGGRTNYADSVKGRFTISRDNAKNTVYLQMNSLKPEDTAVYYCNKAYPGLERWYRGLYYWGQGTQVTVSS :: high polyreactivity
QVQLVESGGGLVQAGGSLRLSCAASGRIIQYNAMGWYRQAPGKERELVAAISWRSGRTYYADSVKGRFTISRDNAKNTVYLQMNSLKPEDTAVYYCAATSRTSWYGYWGQGTQVTVSS :: high polyreactivity
QVQLVESGGGLVQAGGSLRLSCAASGNTFHTYTMGWYRQAPGKERELVAVITRSGGRTYYADSVKGRFTISRDNAKNTVYLQMNSLKPEDTAVYYCAVLGAGQTWLDYWGQGTQVTVSS :: high polyreactivity
QVQLVESGGGLVQAGGSLRLSCAASGSIIWRNAMGWYRQAPGKERELVAAITWSRGSTFYADSVKGRFTISRDNAKNTVYLQMNSLKAEDTAVYYCAAYGGRRFDYWGQGTQVTVSS :: low polyreactivity

get_value(item= "QVQLVESGGGLVQAGGSLRLSCAASGGTFVVYAMGWYRQAPGKEREFVAGISWGGGRTYYADSVKGRFTISRDNAKNPVYLQMNSLKPEDTAVYYCAVRREIQYYRKFDYWGQGTQVTVSS" , readout=polyreactivity (PSR sort gate)) returns low polyreactivity

get_value(item= "QVQLVESGGGLVQAGGSLRLSCAASGGTFRKNAMGWYRQAPGKERELVAAITKSGGSTYYADSVKGRFTISRDNAKNTVYLQMNSLKPEDTAVYYCNTYPGSTQPPYDYWGQGTQVTVSS" , readout=polyreactivity (PSR sort gate)) returns low polyreactivity

get_value(item= "QVQLVESGGGLVQAGGSHRLSCAASGRIFVKYAMGWYRQAPGKERELVAAITKSGSSTYYADSVKGRFTISRDNAKITVYLQMNSLKPEDTAVYYCAALTISRSRTGYYWGQGTQVTVSS" , readout=polyreactivity (PSR sort gate)) returns low polyreactivity
